- Tested on: P12-Ichikawa
- PROTOCOL NOTES: cell viability relative to DMSO control; higher = less cytotoxic
- TEST CONTEXT: RPMI 5 mM glucose + 10% FBS; 48 h; 5.12 µM
MEASURED ENDPOINT: cell viability

SMILES REPRESENTATION: COc1ccc(-c2ccc3ncc4c(c3c2)n(-c2ccc(N3CCNCC3)c(C(F)(F)F)c2)c(=O)n4C)cn1
SYSTEM NAME: P12-Ichikawa
MEASURED ENDPOINT: cell viability
RESULT: 6.08%

Request: What does the data say about its cell viability? Entry: `CCN1CCN(c2ccc(Nc3cc(N(C)C(=O)Nc4c(Cl)c(OC)cc(OC)c4Cl)ncn3)cc2)CC1`
Result: 86%

Request: For `C[C@@]12C(=O)OC(=O)[C@@]1(C)C1CCC2O1` , what is its reported cell viability?
Result: 92.3%

Request: Value lookup for cell viability; key = `CN(C)C1CCN(C(=O)c2ccc(NC(=O)Nc3nc(N4CCOCC4)nc(N4CCOCC4)n3)cc2)CC1`
Result: 35.4%
